Below: a set of entries, each annotated with reported pIC50.
- System: SU-DHL-6 cells
- measurement_notes: In vitro cell proliferation assay in SU-DHL-6 cell line (CCK-8)
- Assay type: cell-based
- assay_setup: Homo sapiens, SU-DHL-6, 72 h
Reminder that pIC50 means the negative base-10 logarithm of the concentration expressed in mol/L.

molecule | measurement_target | pIC50
CCC(Nc1ncnc2[nH]cnc12)c1cc2ncc(Cl)n2nc1-c1ccccc1F (single isomer, unassigned) | SU-DHL-6 cells | 7.49
CC[C@H](Nc1ncnc(N)c1C#N)c1cc2ncc(Cl)n2nc1-c1ccccc1 | SU-DHL-6 cells | 8.52
CCC(Nc1ncnc(N)c1C#N)c1cc2ncc(Cl)n2nc1-c1cccc(F)c1 (stereo not shown) | SU-DHL-6 cells | 7.96

Please report pIC50 with SU-DHL-6 cells for item CCC(Nc1ncnc2[nH]cnc12)c1cc2ncc(Cl)n2nc1-c1ccccc1 (stereo not shown) .
7.59

----------
Reported values: pIC50 for PI3K-β (Homo sapiens), one per item.
Field pIC50 (float): negative decimal logarithm of the concentration in molar.

Observe how each entry below is paired with its result.
compound | recorded_metric | observed_value
C[C@H](Nc1ncnc(N)c1C#N)c1cc2ncc(Cl)n2nc1-c1ccc(O)cc1 | pIC50 | 9.00
CCC(Nc1ncnc(N)c1C#N)c1cc2ncc(Cl)n2nc1-c1ccccc1F (stereo not shown) | pIC50 | 5.97
C[C@H](Nc1ncnc(N)c1C#N)c1cc2ncc(Cl)n2nc1-c1cccc(S(C)(=O)=O)c1 | pIC50 | 5.88

For the next question, use this compound.
Consider the compound Cc1cccc(-c2nn3c(Cl)cnc3cc2[C@H](C)Nc2ncnc(N)c2C#N)c1 and give its recorded pIC50.
5.91

----------
- measurement_target: PI3K-β (Homo sapiens, UniProt P42338)
- Sequence (P42338 whole entry, looked up): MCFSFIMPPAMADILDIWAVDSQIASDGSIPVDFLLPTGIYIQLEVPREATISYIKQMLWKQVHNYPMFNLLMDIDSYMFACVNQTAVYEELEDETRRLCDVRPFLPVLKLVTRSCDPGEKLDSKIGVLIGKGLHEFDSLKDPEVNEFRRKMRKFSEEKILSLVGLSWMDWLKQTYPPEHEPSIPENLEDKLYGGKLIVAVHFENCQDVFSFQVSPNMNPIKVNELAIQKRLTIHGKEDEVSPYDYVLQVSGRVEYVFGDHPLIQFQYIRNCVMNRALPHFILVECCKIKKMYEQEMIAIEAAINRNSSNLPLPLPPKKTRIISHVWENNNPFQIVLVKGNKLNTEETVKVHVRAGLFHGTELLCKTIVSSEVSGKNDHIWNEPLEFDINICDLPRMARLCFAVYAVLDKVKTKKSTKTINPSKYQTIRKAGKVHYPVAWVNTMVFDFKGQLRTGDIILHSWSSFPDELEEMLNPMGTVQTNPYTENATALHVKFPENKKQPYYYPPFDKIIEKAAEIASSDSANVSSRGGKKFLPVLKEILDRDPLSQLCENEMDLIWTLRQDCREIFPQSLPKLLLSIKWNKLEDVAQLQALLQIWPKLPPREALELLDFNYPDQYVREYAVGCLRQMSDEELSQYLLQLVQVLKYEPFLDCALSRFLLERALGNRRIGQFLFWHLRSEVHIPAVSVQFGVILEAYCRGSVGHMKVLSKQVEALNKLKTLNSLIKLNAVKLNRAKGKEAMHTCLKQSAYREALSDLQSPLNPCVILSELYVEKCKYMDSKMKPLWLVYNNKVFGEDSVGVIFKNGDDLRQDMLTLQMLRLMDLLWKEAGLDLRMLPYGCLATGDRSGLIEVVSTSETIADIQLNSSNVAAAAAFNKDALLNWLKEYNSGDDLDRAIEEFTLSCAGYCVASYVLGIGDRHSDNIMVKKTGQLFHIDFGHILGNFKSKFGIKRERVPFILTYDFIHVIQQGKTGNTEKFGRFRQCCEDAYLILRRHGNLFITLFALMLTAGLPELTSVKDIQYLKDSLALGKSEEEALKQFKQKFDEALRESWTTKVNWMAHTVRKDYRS
Each item that follows carries a reported pIC50.
// pIC50: -log10(molar conc.)

Answered cases to consult:
smiles_notation | pIC50
C[C@H](Nc1ncnc(N)c1C#N)c1cc2ncc(Cl)n2nc1-c1cccc(Cl)c1 | 5.88
Cc1nc2cc([C@H](C)Nc3ncnc(N)c3C#N)c(-c3ccccc3)nn2c1Cl | 5.94

Look up PI3K-β (Homo sapiens, UniProt P42338) data: pIC50 of C[C@H](Nc1ncnc(N)c1C#N)c1cc2ncc(Cl)n2nc1-c1cccc(C#N)c1 , then report it.
5.90

----------
- measurement_target: PI3K-β (Homo sapiens)
- measurement_notes: Transcreener KINASE Assay, fluorescent determination of PI3K enzyme activity;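 as to PI3K-β IH % (inhibition rate): recombinant PI3K enzyme reaction, 80 min at room temperature, ADP formed detected by far-red competitive fluorescence polarization immunoassay, inhibition relative to ADP in 2% DMSO control wells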
- Format: biochemical
- assay_setup: at 1 μM; read-out: PI3K-β IH % (inhibition rate)
Quick reference: inhibition at 1 µM of the listed items.
Your answer should be a plain number; it is taken to be in %.

compound | inhibition at 1 µM (%)
C[C@H](Nc1ncnc(N)c1C#N)c1cc2ncc(F)n2nc1-c1ccccc1 | 50.1
CCC(Nc1ncnc(N)c1C#N)c1cc2ncc(Cl)n2nc1-c1ccccn1 (stereo not shown) | 11.1
C[C@H](Nc1nc[n+]([O-])c(N)c1C#N)c1cc2ncc(Cl)n2nc1-c1ccccc1 | -15.5
CC[C@@H](Nc1ncnc2[nH]cnc12)c1cc2ncc(Cl)n2nc1-c1cccc(F)c1 | 18.8
Cc1cn2nc(-c3ccccc3)c([C@H](C)Nc3ncnc(N)c3C#N)cc2n1 | 20.5
Cc1nc(N)c(C#N)c(N[C@@H](C)c2cc3ncc(Cl)n3nc2-c2ccccc2)n1 | 23.8
CC[C@H](Nc1ncnc2[nH]cnc12)c1cc2ncc(Cl)n2nc1-c1cccc(F)c1 | 32.2
COc1cc(-c2c(N)ncnc2N[C@@H](C)c2cc3ncc(Cl)n3nc2-c2ccccc2)ccn1 | -14.1
C[C@@H](c1cc2ncc(Cl)n2nc1-c1ccccc1)N(C)c1ncnc(N)c1C#N | 7.4
CNc1ncnc(N[C@@H](C)c2cc3ncc(Cl)n3nc2-c2ccccc2)c1C#N | 2.2

Give a short answer stating reported inhibition at 1 µM for CC(Nc1ncnc2[nH]cnc12)c1cc2ncc(Cl)n2nc1-c1ccccc1 (single isomer, unassigned) .
55.7

Report inhibition at 1 µM, nothing else, for this compound: C[C@H](Nc1ncnc2[nH]ccc12)c1cc2ncc(Cl)n2nc1-c1ccccc1
15.8

Supply inhibition at 1 µM value. Item: C[C@H](Nc1ncnc(N)c1-c1ccc(O)c(F)c1)c1cc2ncc(Cl)n2nc1-c1ccccc1
-2.2

Retrieve inhibition at 1 µM measured for Cc1cnc2cc([C@H](C)Nc3ncnc4[nH]cnc34)c(-c3ccccc3)nn12 and print it.
28.7

For the compound C[C@H](Nc1ncnc(N)c1C#N)c1cc2ncc(Cl)n2nc1-c1ccc2cccnc2c1 , give its reported inhibition at 1 µM.
24.4

Answer with the recorded inhibition at 1 µM of C[C@@H](c1cc2ncc(Cl)n2nc1-c1ccccc1)n1cnc2c(N)ncnc21 only.
17.4

----------
Reported log10 IC50 values for a set of compounds
- measurement_target: PI3K-δ (p110δ/p85α) (Homo sapiens (Human))
- Sequence (O00329 whole entry, species assumed): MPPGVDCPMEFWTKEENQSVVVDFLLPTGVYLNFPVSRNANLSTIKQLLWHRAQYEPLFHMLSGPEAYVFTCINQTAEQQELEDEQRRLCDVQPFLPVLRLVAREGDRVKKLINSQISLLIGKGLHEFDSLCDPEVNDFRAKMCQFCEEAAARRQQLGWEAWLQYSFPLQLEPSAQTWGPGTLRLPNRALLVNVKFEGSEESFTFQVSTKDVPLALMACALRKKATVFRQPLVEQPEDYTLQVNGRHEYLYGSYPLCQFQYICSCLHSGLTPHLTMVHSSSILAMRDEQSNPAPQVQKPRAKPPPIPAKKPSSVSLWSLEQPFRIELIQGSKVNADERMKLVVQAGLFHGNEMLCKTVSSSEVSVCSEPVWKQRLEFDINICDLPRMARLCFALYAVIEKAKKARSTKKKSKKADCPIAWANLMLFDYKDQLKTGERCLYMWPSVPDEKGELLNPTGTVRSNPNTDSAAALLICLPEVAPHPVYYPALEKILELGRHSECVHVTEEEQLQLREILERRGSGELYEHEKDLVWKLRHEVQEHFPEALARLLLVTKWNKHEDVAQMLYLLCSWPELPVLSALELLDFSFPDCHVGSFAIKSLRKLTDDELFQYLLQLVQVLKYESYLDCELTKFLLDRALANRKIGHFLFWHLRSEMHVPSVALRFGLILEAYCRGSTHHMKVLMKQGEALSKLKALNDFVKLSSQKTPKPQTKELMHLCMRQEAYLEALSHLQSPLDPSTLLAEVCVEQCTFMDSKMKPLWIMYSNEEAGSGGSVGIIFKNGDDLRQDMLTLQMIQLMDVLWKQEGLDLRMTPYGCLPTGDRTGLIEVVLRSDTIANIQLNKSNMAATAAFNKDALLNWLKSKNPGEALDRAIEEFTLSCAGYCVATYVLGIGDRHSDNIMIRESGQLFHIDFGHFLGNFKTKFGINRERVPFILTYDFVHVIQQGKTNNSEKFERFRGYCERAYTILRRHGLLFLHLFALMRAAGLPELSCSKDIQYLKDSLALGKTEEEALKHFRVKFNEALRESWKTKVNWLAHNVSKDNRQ
- Sequence (P27986 whole entry partner, species assumed): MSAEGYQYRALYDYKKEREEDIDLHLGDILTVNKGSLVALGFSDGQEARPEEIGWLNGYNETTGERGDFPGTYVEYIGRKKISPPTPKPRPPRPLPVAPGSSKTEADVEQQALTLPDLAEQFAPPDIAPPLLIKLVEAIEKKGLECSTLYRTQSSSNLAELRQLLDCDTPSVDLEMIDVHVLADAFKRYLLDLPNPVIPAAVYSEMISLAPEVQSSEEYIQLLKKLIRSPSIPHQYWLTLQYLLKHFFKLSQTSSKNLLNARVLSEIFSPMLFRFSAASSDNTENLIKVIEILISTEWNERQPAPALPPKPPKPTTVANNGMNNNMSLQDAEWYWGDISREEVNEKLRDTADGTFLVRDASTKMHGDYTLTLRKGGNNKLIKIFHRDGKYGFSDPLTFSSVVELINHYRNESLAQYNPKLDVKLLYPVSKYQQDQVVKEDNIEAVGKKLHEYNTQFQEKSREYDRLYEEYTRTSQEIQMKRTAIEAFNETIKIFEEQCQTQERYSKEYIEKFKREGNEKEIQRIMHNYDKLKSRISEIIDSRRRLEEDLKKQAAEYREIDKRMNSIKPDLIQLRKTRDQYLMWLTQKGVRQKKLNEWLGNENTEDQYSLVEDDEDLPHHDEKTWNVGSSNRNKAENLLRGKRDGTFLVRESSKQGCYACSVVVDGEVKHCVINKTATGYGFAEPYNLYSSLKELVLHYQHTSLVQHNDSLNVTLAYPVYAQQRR
- measurement_notes: Transcreener KINASE Assay, fluorescent determination of PI3K enzyme activity
The common logarithm of IC50 in nM is what is listed.

Before answering, review these 4 worked examples.
compound | recorded_metric | observed_value
C[C@H](Nc1ncnc(N)c1C#N)c1cc2ncc(Cl)n2nc1-c1ccc2cccnc2c1 [Compound 61] | log10 IC50 | 0.85
C[C@H](Nc1ncnc(N)c1C#N)c1cc2ncc(Cl)n2nc1-c1cc(F)cc(Cl)c1 [Compound 66] | log10 IC50 | 0.95
C[C@H](Nc1ncnc2[nH]ccc12)c1cc2ncc(Cl)n2nc1-c1ccccc1 [Compound 17] | log10 IC50 | 1.41
C[C@H](Nc1ncnc(N)c1C#N)c1cc2ncc(Cl)n2nc1-c1cccc(F)c1F [Compound 36] | log10 IC50 | 0.48

Using the record for C[C@H](Nc1ncnc(N)c1C(=O)O)c1cc2ncc(Cl)n2nc1-c1ccccc1 [Compound 52] , state its measured log10 IC50.
1.90

Specify log10 IC50 for C[C@H](Nc1ncnc(N)c1C#N)c1cc2ncc(Cl)n2nc1-c1ccc(F)c(F)c1 [Compound 63] and stop.
0.78
